Reference for the values: PubChem BioAssay (NCI)

Assay: NCI Yeast Anticancer Drug Screen. Data for the mlh1 rad18 strain (AID 175)
Details: S. cerevisiae mlh1 rad18 strain growth inhibition; at 50.0 µM; stronger effect = higher value
Compounds without any hit were thinned out: in the full panel of roughly 79,000, 15% have a hit.
reported property: growth inhibition (%)

>>> print(df.to_string())
                                    compound  number
 0  COC(=O)C1C(=C(c2ccccc2)c2ccccc2)C1c1ccccc1 (stereo unspecified)    -8.7
 1              O=C1CCCc2[nH]c3ccc(Cl)cc3c21    12.9
 2  Cc1ccc(S(=O)(=O)OC2COC3C2OC2OC(C)(C)OC23)cc1 (stereo unspecified)    0.35
 3        O=C(N/N=C\c1ccc(Cl)cc1Cl)c1ccccc1S       5
 4  COc1nc2c(c(O)c(C)c(=O)n2OC2OC(COC(C)=O)C(OC(C)=O)C(OC(C)=O)C2OC(C)=O)c(=O)n1C (stereo unspecified)     2.3
 5                    CCN(CC)CCOc1c(C)cccc1C      -2
 6        CC(C)(C)/C(=N\[N+](C)(C)C)c1ccccc1    10.6
 7  COC(=O)c1ccc2c(c1)CC1(C2)Cc2cc3c(cc2C1=O)CCC3 (stereo unspecified)    -5.3
 8  Cc1cnc(C)c(C(O)c2ccccc2)n1 (stereo unspecified)   -3.65
 9         CCOC(=O)c1nc2c(C)nc(N)nc2[nH]c1=O    -3.1
10                      C[n+]1cccc(C(=O)O)c1    10.1
11  CC1=CC(C)S(=O)(=O)C1 (stereo unspecified)   -16.7
12  Cc1cccc(C)c1N1C(=O)C(=O)C(c2nc3ccccc3s2)C(=Nc2cccc3c(=O)[nH][nH]c(=O)c23)C1=O (stereo unspecified)    23.7
13                   CC(C)(C#N)CCCS(C)(=O)=O   -2.65
14  O=c1[nH]nc(-c2ccc3c(c2)Cc2ccccc2-3)c2ccccc12    17.5
15  CCO[C@H]1OC(=O)[C@@H]2C(c3ccc(F)cc3)=NO[C@H]12    -9.3
16  O=C(O)C(Cc1ccccc1)c1ccccc1 (stereo unspecified)    2.85
17            CC(=O)Oc1ccc(/C=C/c2ccccn2)cc1    15.3
18  COC(=O)C1C(=O)CC(C)(O)C(C(=O)OC)C1c1ccc(N(C)C)cc1 (stereo unspecified)   -25.4
19  OCc1ccccc1CC(O)c1ccccc1 (stereo unspecified)   -59.4
20               O=C(/C=C/c1ccccc1O)c1ccccc1   -24.6
21                     CC(=O)c1nc(C#N)c(N)o1   -23.4
22  Nc1[nH]n(-c2ccccc2)c(=O)c1/C=N/C(=S)NC1CCCCC1   -67.9
23                         O=C(O)CCCCC1CCCC1    56.4
24                         CCc1nc2ccccc2cc1C     2.6
25                   NC(=O)c1sc(N2CCCC2)nc1N    9.05

---

Experiment: NCI Yeast Anticancer Drug Screen. Data for the sgs1 mgt1 strain (AID 161);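 also: 0% = growth of cultures given vehicle only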
Conditions: S. cerevisiae sgs1 mgt1 strain, at 50.0 µM
Compounds without any hit were thinned out: in the full panel of roughly 79,000, 15% have a hit. Activity calls are given as the source filed them. No stated cut-off is given here; in the data, active means growth inhibition above about 70%; inactive means the rest.
Possible outcomes: active, inactive

molecule	qualitative label
O=[N+]([O-])c1ccc(OCCSc2ccccc2)cc1	inactive
CC(C)(C)c1cc(CCCCCCCC2(CCCCCCCc3cc(C(C)(C)C)cc(C(C)(C)C)c3)OC(COCCOCCCCCC#N)C(COCCOCCCCCC#N)O2)cc(C(C)(C)C)c1 (configuration not stated)	inactive
C=C1c2nc3ccccc3n2C=C(c2ccccc2)N1c1ccc([N+](=O)[O-])cc1	inactive
CC1(C)OC(C(O)CO)C(C2COC(=S)O2)O1 (configuration not stated)	inactive
CC(C)(CNC(=O)C12CC3CC(CC(C3)C1)C2)NC(=O)C12CC3CC(CC(C3)C1)C2	inactive
COc1cc(/C=C2\SC(=S)N(/C=C(/C#N)C(=O)c3ccc4ccccc4c3)C2=O)cc(OC)c1OC	inactive
CCOC(=O)C(C)(C(C)=O)c1nc(=S)[nH]c(=S)[nH]1 (configuration not stated)	inactive
CCOC(=O)C(C)(C)/C=C\C(Cl)=C(Cl)Cl	inactive
O=C(O)/C=C\C(=O)Nc1ccc(S(=O)(=O)Nc2nccs2)cc1	inactive
COc1cc(C(c2c(O)c3ccccc3oc2=O)N2CCCC2)cc(OC)c1OC (configuration not stated)	inactive
O=C1c2c(O)cccc2C(C(=O)CCCC(=O)C2c3cccc(O)c3C(=O)c3c(O)cccc32)c2cccc(O)c21	inactive
C=C(C)c1ccc(F)cc1	inactive
CN(C)CCN1CC2C3CCCCC3=C3CCCCC3C2C1 (configuration not stated)	inactive
CC(=O)c1cccc(C(=O)O)c1	inactive
CCCCCCCSC#N	inactive
CC(=O)/C(=C\c1ccc(/C=C(\C(C)=O)C(=O)CCN(C)C)cc1)C(=O)CCN(C)C	inactive
COc1c(OC2OC(CO)C(O)C(O)C2O)cc2c(c1OC)-c1ccc(OC)c(=O)cc1C(NC(C)=O)CC2 (configuration not stated)	inactive
Cc1ccc(N(C(=O)Nc2ccc(F)c(Cl)c2)C2=NCC(C)S2)cc1 (configuration not stated)	inactive
O=c1oc(-c2ccccc2)nc2c1CCCS2	inactive
Clc1ccc(OCc2nnc3n2N=C(c2ccccc2)CS3)cc1	inactive
Cn1c(O)c2c(c1O)C(=Nc1ccccc1)c1ccccc1C2=O	active
N#CCCOC(=O)Nc1ccccc1	inactive
CCC1C(=O)OCc2c1cc1n(c2=O)CCC12OCCO2 (configuration not stated)	inactive
N/N=C1\CCCc2c1no[n+]2[O-]	inactive
Cc1cc(=O)n(-c2c(C)cccc2Cl)c(/C=C(\O)c2ccncc2)n1	inactive
CCCCCCCC(=O)NS(=O)(=O)c1ccccc1	inactive
O=C(O)C(c1ccccc1)C(O)C1CCCCC1 (configuration not stated)	inactive
N#Cc1ccc(/C=C\c2ccc(C#N)cc2)cc1	inactive
O=C(CCc1cc(-c2ccccc2)nc(=S)[nH]1)Nc1ccccc1[N+](=O)[O-]	inactive
CCCC(=O)/C=C\c1ccccc1	inactive
O=P(O)(OCC(Br)CBr)OCC(Br)CBr (configuration not stated)	inactive
CCc1ccc(-c2c(-c3ccccc3)c(-c3ccccc3)c(-c3ccccc3)c(-c3ccccc3)c2-c2ccccc2)cc1	inactive
COC(C)C(NC(=O)C1CCCN1C)C1OC(SCCOC(=O)c2ccccc2O)C(O)C(O)C1O (configuration not stated)	inactive
COc1ncnc2ncn(C)c12	inactive
O=[N+]([O-])c1nccn1COCCI	inactive
O=C(O)c1ccc2c(c1)S(=O)(=O)c1ccccc1C2=O	inactive
CCOc1ccc(OCC)c(C(=O)CCC(=O)Nc2ccc(Br)cc2)c1	inactive
CC(NC(=O)OCc1ccccc1)NC(=O)C(CC(=O)OC(C)(C)C)NC(=O)OC(C)(C)C (configuration not stated)	inactive
CN(N=O)c1nc2c(C(N)=O)ncn2s1	inactive
Cc1occc1C(=S)Nc1ccc(Cl)c(C(=O)OC2CCCC2)c1	inactive
NCCCCCC(CCN)SCC1OC(n2cnc3c(N)ncnc32)C(O)C1O (configuration not stated)	inactive
CCCC(=O)OC(C)CC(C)C (configuration not stated)	inactive
O=C(/C=C/c1ccc(Cl)c(Cl)c1)c1ccc2ccccc2c1	inactive
Nc1ccccc1CO	inactive
Cn1c(=O)c2[nH]c(C3CCCCCC3)nc2n(C)c1=O	inactive
CN1CCS(=O)(=O)C2CCCCC2C1=O (configuration not stated)	inactive
COc1ccc(C(=O)N2CCOCC2)cc1	inactive
